These measurements were taken from patent US20260265334A1.

cAMP pEC50 overview
# System: RXFP4 (relaxin family peptide receptor 4) on CHO-K1-RXFP4 cells (UniProt Q8TDU9 1-374, limits assumed)
# Sequence (Q8TDU9 whole entry): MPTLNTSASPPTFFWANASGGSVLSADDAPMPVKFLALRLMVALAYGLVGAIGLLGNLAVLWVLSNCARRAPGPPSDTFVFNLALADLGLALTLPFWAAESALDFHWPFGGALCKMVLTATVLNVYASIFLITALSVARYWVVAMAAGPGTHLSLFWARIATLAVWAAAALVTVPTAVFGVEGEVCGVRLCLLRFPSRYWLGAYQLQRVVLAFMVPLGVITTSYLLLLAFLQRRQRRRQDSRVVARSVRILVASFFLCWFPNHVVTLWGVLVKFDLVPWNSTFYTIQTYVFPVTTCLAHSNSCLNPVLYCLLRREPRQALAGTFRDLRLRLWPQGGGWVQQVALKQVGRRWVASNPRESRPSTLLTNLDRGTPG
# Test Method Notes: cell-based or functional assay
Bridge positions count the residues as written; N and C are the ends. Square brackets hold non-standard residues; d marks the D form. Ends that are not written are not given here. I, II: the chains in the order shown. S5 = C=CCCC[C@](C)(N)C(=O)O; αMeC = C[C@](N)(CS)C(=O)O
// keep it numeric: no unit symbol after the value

* Native INSL5 (human insulin-like peptide 5) (ligand) chain 1: ZDLQTLCCTDGCSMTDLSALC chain 2: KESVRLCGLEYIRTVIYICASSRW | 8.34

cAMP pEC50 lookup needed for INSL5-A13: B7-24 (reduced two chain analogue) (ligand, not fully specified; cysteine pairing not given here, also called Formula II) chain 1: CTDGASMKDLSALC chain 2: CGLEYIRTVIYICASSRW , thanks.
8.08

Please answer likewise for Ac-SGL[S5]YIR[S5]VIYISGASRW (staple 4-8) [Hydrocarbon stapled analogue (INSL5 B-chain, Formula VI)]
6.18

Please answer likewise for Ac-SGL[αMeC]YIR[αMeC]VIYISGGSRW (disulfide 4-8, also called disulfide stapled analogue) [Disulfide bridge stapled analogue (INSL5 B-chain, Formula IX)]
6.84

Please answer likewise for INSL5-A13 (two-chain INSL5 analogue, RXFP4 agonist) (ligand, disulfide I:1-II:7, I:14-II:19, Disulfide bonds: Cys 1 of A chain to Cys 7 of B chain; Cys 14 of A chain to Cys 19 of B chain; also called Analogue 13; two chain agonist) chain 1: CTDGASMKDLSALC chain 2: KESVRLCGLEYIRTVIYICASSRW
8.1
